target entity: ~100 representative kinases (Homo sapiens)
Construct: Recombinant protein kinase domains with a concentration of 2 μM
protocol notes: DSF 100 kinase selectivity screen;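 also: compound tested at 20 µM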
Type: binding
test parameters: Protein DCAMKL1; average of three replicates
# dTm per entry
endpoint: dTm

| molecule | endpoint | result |
| --- | --- | --- |
| O=C(Nc1cccc(-c2c[nH]c3ncnc(N4CCOCC4)c23)c1)C1(C(=O)Nc2ccc(F)cc2F)CC1 | dTm | -0.73 K |
| COc1cc(C(=O)N2CCOCC2)c(F)cc1Nc1nc(N(C)C)c2c(Cl)c[nH]c2n1 | dTm | 2.05 K |
| CNC(=O)c1cc(Oc2ccc(NC(=O)Nc3cc(C(C)(C)C)nn3-c3ccc4ncccc4c3)c(F)c2)ccn1 [Rebastinib, reference compound] | dTm | 3.67 K |
| CC(C)(C)c1cc(NC(=O)Nc2cccc(-c3c[nH]c4ncnc(N5CCOCC5)c34)c2)n(-c2ccc3ncccc3c2)n1 | dTm | 3.53 K |
| O=C(Nc1cccc(-c2c[nH]c3ncnc(N4CCOCC4)c23)c1)C1(C(=O)Nc2ccc(F)c(Br)c2F)CC1 | dTm | 3.55 K |
| O=C(Nc1cccc(-c2c[nH]c3ncnc(N4CCOCC4)c23)c1)C1(C(=O)Nc2ccc(F)c(Cl)c2)CC1 | dTm | 2.36 K |
| Cc1cc(F)ccc1NC(=O)C1(C(=O)Nc2cccc(-c3c[nH]c4ncnc(N5CCOCC5)c34)c2)CC1 | dTm | -1.61 K |

====

target entity: ~100 representative kinases (Homo sapiens, UniProt Q92630)
Construct: Recombinant protein kinase domains with a concentration of 2 μM
Sequence (Q92630 whole entry, the tested form may be a part): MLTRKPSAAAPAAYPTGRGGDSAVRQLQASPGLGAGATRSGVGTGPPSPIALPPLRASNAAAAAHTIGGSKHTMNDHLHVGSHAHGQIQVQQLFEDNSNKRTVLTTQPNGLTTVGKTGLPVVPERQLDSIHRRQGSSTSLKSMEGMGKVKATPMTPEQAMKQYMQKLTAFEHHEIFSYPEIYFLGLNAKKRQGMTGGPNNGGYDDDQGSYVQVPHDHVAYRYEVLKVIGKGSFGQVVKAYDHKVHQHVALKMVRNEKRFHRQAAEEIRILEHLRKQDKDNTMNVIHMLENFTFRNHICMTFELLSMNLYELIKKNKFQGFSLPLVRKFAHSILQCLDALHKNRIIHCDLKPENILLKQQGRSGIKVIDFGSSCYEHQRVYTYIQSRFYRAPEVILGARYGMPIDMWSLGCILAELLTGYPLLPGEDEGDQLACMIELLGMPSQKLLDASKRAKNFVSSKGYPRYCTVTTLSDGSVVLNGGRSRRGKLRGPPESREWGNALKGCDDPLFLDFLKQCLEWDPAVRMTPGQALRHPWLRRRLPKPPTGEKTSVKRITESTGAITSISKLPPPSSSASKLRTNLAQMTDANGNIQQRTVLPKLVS
protocol notes: DSF 100 kinase selectivity screen;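 also: compound tested at 20 µM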
Type: binding
test parameters: Protein DYRK2; average of three replicates
Description: Recombinant protein kinase domains with a concentration of 2 μM were mixed with a 20 μM compound solution in dimethyl sulfoxide (DMSO), 20 mM Hepes (pH 7.5), and 500 mM NaCl. SYPRO Orange (5000×, Invitrogen) was added as a fluorescence probe (1μl/ml). Subsequently, temperature-dependent protein unfolding profiles were measured using the QuantStudio 5 realtime PCR machine (Thermo Fisher Scientific, Waltham, MA, USA). […] The temperature was raised with a step rate of 3°C/min. […]
# dTm per entry

| molecule | dTm / K |
| --- | --- |
| CC(C)(C)c1cccc(NC(=O)C2(C(=O)Nc3cccc(-c4c[nH]c5ncnc(N6CCOCC6)c45)c3)CC2)c1 [Compound 22] | 5.80 |
| CCSc1nc(NC)c2c(-c3cccc(NC(=O)Nc4cc(C(C)(C)C)nn4-c4ccc(C)cc4)c3)c[nH]c2n1 [Compound 32] | 6.49 |
| O=C(Nc1cccc(-c2c[nH]c3ncnc(N4CCOCC4)c23)c1)C1(C(=O)Nc2ccc(F)cc2F)CC1 [Compound 23] | 3.88 |
| O=C(Nc1ccc(Cl)cc1)C1(C(=O)Nc2cccc(-c3c[nH]c4ncnc(N5CCOCC5)c34)c2)CC1 [Compound 13] | 9.27 |
| O=C(Nc1cccc(-c2c[nH]c3ncnc(N4CCOCC4)c23)c1)C1(C(=O)Nc2cccc3c2CCC3)CC1 [Compound 11] | 4.30 |
| Cc1cc(NC(=O)C2(C(=O)Nc3cccc(-c4c[nH]c5ncnc(N6CCOCC6)c45)c3)CC2)ccc1F [Compound 20] | 10.73 |
| CC(=O)N1CCN(c2nc(Cl)nc3[nH]cc(-c4cccc(NC(=O)Nc5cc(C(C)(C)C)nn5-c5ccc(C)cc5)c4)c23)CC1 [Compound 31] | 6.61 |
| O=C(Nc1cccc(-c2c[nH]c3ncnc(N4CCOCC4)c23)c1)C1(C(=O)Nc2cc(Br)c(F)cc2F)CC1 [Compound 25] | 2.68 |
| O=C(Nc1cccc(-c2c[nH]c3ncnc(N4CCOCC4)c23)c1)C1(C(=O)Nc2ccc(F)c(Br)c2F)CC1 [Compound 26] | 4.70 |
| Cn1cc(-c2c[nH]c3ncnc(N4CCOCC4)c23)cc1C#N [PFE-360] | 1.08 |
| O=C(Nc1cccc(-c2c[nH]c3ncnc(N4CCOCC4)c23)c1)C1(C(=O)Nc2ccc(F)c(Cl)c2)CC1 [Compound 18] | 9.51 |
| CC(C)(C)c1cc(NC(=O)Nc2cccc(-c3c[nH]c4ncnc(N5CCOCC5)c34)c2)n(-c2ccc3ncccc3c2)n1 [Compound 28] | 10.25 |
| CCc1ccc(NC(=O)C2(C(=O)Nc3cccc(-c4c[nH]c5ncnc(N6CCOCC6)c45)c3)CC2)cc1 [Compound 15] | 4.76 |
| Cc1ccc(-n2nc(C(C)(C)C)cc2NC(=O)Nc2cccc(-c3c[nH]c4ncnc(N5CCOCC5)c34)c2)cc1 [Compound 29] | 9.71 |
| O=C(Nc1ccc(F)cc1)C1(C(=O)Nc2cccc(-c3c[nH]c4ncnc(N5CCOCC5)c34)c2)CC1 [Compound 2] | 7.92 |
| Cc1ccc(C(=O)Nc2ccc(CN3CCN(C)CC3)c(C(F)(F)F)c2)cc1C#Cc1c[nH]c2ncnc(N3CCOCC3)c12 [Compound 1] | 3.91 |
| O=C(Nc1cc(F)cc(Br)c1)C1(C(=O)Nc2cccc(-c3c[nH]c4ncnc(N5CCOCC5)c34)c2)CC1 [Compound 27] | 3.64 |
| Cc1cc(NC(=O)C2(C(=O)Nc3ccc(F)cc3)CC2)cc(-c2c[nH]c3ncnc(N4CCOCC4)c23)c1 [Compound 6] | 5.04 |
| O=C(Nc1cccc(-c2c[nH]c3ncnc(N4CCOCC4)c23)c1)c1cccn(-c2ccc(F)cc2)c1=O [Compound 4] | 6.24 |
| C[C@@H]1CN(c2cc(-c3n[nH]c4ccc(OC5(C)CC5)cc34)ncn2)C[C@H](C)O1 [MLi2] | 1.21 |
| O=C(Nc1cccc(-c2c[nH]c3ncnc(N4CCOCC4)c23)c1)C1(C(=O)Nc2ccc(F)c(Br)c2)CC1 [Compound 19] | 3.42 |
| Cc1ccc(NC(=O)C2(C(=O)Nc3cccc(-c4c[nH]c5ncnc(N6CCOCC6)c45)c3)CC2)cc1 [Compound 14] | 6.23 |
| COc1cc(S(C)(=O)=O)ccc1Nc1nc(N(C)C)c2c(Cl)c[nH]c2n1 [Compound 37] | 1.57 |
| Cc1ccc(C(=O)Nc2ccc(CN3CCN(C)CC3)c(C(F)(F)F)c2)cc1C#Cc1cnc2[nH]ncc2c1 [GZD-824, reference compound] | 4.99 |
| Cc1cc(F)ccc1NC(=O)C1(C(=O)Nc2cccc(-c3c[nH]c4ncnc(N5CCOCC5)c34)c2)CC1 [Compound 24] | 1.96 |
| Cc1ccc(-n2nc(C(C)(C)C)cc2NC(=O)Nc2cccc(-c3c[nH]c4nc(Cl)nc(N5CCOCC5)c34)c2)cc1 [Compound 30] | 3.48 |
| CNC(=O)c1cc(Oc2ccc(NC(=O)Nc3cc(C(C)(C)C)nn3-c3ccc4ncccc4c3)c(F)c2)ccn1 [Rebastinib, reference compound] | 6.14 |
| COc1cc(C(=O)N2CCOCC2)c(F)cc1Nc1nc(N(C)C)c2c(Cl)c[nH]c2n1 [Compound 36] | 5.31 |

====

target entity: ~100 representative kinases (Homo sapiens, UniProt P24941)
Construct: Recombinant protein kinase domains with a concentration of 2 μM
protocol notes: DSF 100 kinase selectivity screen;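 also: compound tested at 20 µM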
Format: binding
test parameters: Protein CDK2; average of three replicates
Method: Recombinant protein kinase domains with a concentration of 2 μM were mixed with a 20 μM compound solution in dimethyl sulfoxide (DMSO), 20 mM Hepes (pH 7.5), and 500 mM NaCl. SYPRO Orange (5000×, Invitrogen) was added as a fluorescence probe (1μl/ml). Subsequently, temperature-dependent protein unfolding profiles were measured using the QuantStudio 5 realtime PCR machine (Thermo Fisher Scientific, Waltham, MA, USA). […] The temperature was raised with a step rate of 3°C/min. […]
# log10 dTm per entry
endpoint: log10 dTm (log10 of the value in K)

| compound | result number |
| --- | --- |
| Cn1cc(-c2c[nH]c3ncnc(N4CCOCC4)c23)cc1C#N | -0.17 |
| COc1cc2c(Oc3ccc(NC(=O)C4(C(=O)Nc5ccc(F)cc5)CC4)cc3F)ccnc2cc1OCCCN1CCOCC1 [Foretinib, reference compound] | -0.40 |
| O=C(Nc1cccc(-c2c[nH]c3ncnc(N4CCOCC4)c23)c1)C1(C(=O)Nc2ccc(F)c(Br)c2)CC1 | 0.87 |
| Cc1ccc(C(=O)Nc2ccc(CN3CCN(C)CC3)c(C(F)(F)F)c2)cc1C#Cc1cnc2[nH]ncc2c1 [GZD-824, reference compound] | 0.70 |
| CCNc1nc(Nc2cc(F)c(C(=O)N3CCOCC3)cc2OC)ncc1C(F)(F)F | 0.15 |
| O=C(Nc1cccc(-c2c[nH]c3ncnc(N4CCOCC4)c23)c1)C1(C(=O)Nc2cc(Br)c(F)cc2F)CC1 | 0.57 |
| O=C(Nc1ccccc1)C1(C(=O)Nc2cccc(-c3c[nH]c4ncnc(N5CCOCC5)c34)c2)CC1 | 0.55 |

Source of measurements: paper PMC12136037
